Biological target: HLA-B*46:01
Assay: IEDB peptide-MHC binding, purified MHC/direct/fluorescence; filed as Kd, often an IC50 or EC50 that approximates it; bounds were set here for any values at or beyond the usual limits of such assays
Conditions: source organism: Vibrio parahaemolyticus AQ3810
Measured Property: Kd

Incoming: Given the entry `MQGKDFNHL` , what Kd was observed with HLA-B*46:01?
Outgoing: ≥ 20 µM

====

For each of the sequences below, state its Kd.
Target: HLA-B*58:01
Assay: IEDB peptide-MHC binding, purified MHC/direct/fluorescence; filed as Kd, often an IC50 or EC50 that approximates it; bounds were set here for any values at or beyond the usual limits of such assays
Conditions: source organism: Marburg virus - Musoke, Kenya, 1980

Incoming: For the sequence `NQECWDSVF` , what Kd is on record?
Outgoing: ≥ 20 µM

Incoming: For the sequence `KRLLLKLDF` , what Kd is on record?
Outgoing: ≥ 20 µM

====

Molecular target: HLA-A*24:03
Experiment: IEDB peptide-MHC binding, purified MHC/direct/fluorescence; filed as Kd, often an IC50 or EC50 that approximates it; bounds were set here for any values at or beyond the usual limits of such assays
Conditions: source organism: Convict Creek 107 virus
Measured Property: Kd

Incoming: For the sequence `YLQAKSQVL` , what Kd is on record?
Outgoing: ≥ 20 µM

====

Molecular target: HLA-B*51:01
Test: IEDB peptide-MHC binding, purified MHC/competitive/fluorescence; filed as Kd, often an IC50 or EC50 that approximates it; bounds were set here for any values at or beyond the usual limits of such assays
Settings: source organism: Cryptosporidium parvum Iowa II
pKd: −log10 of the molar value.
Measured Property: pKd

Incoming: For the sequence `KLGDITLFL` , what pKd is on record?
Outgoing: ≤ 4.70

Incoming: For the sequence `KIFKVTGEF` , what pKd is on record?
Outgoing: ≤ 4.70

====

Biological target: HLA-A*01:01
Assay: IEDB peptide-MHC binding, purified MHC/direct/fluorescence; filed as Kd, often an IC50 or EC50 that approximates it; bounds were set here for any values at or beyond the usual limits of such assays
Details: source organism: Mammarenavirus lassaense
Measured Property: pKd
FYI, pKd means -log10 of a concentration in mol per litre.

Incoming: For the sequence `YENAVWDQY` , what pKd is on record?
Outgoing: 6.27

====

Molecular target: HLA-A*32:07
Test: IEDB peptide-MHC binding, purified MHC/competitive/fluorescence; filed as Kd, often an IC50 or EC50 that approximates it; bounds were set here for any values at or beyond the usual limits of such assays
Conditions: source organism: Entamoeba histolytica
Measured Property: pKd
FYI, pKd means -log10 of a concentration in mol per litre.

Incoming: For the sequence `RMYWGVNPK` , what pKd is on record?
Outgoing: 7.86

====

Target: HLA-B*46:01
Assay: IEDB peptide-MHC binding, purified MHC/direct/fluorescence; filed as Kd, often an IC50 or EC50 that approximates it; bounds were set here for any values at or beyond the usual limits of such assays
Conditions: source organism: Influenza A virus (A/swine/Hong Kong/5190/99(H3N2))
Measured Property: Kd

Incoming: For the sequence `YMFESKSMK` , what Kd is on record?
Outgoing: ≥ 20 µM

====

Molecular target: HLA-B*53:01
Assay: IEDB peptide-MHC binding, purified MHC/competitive/radioactivity; filed as Kd, often an IC50 or EC50 that approximates it; bounds were set here for any values at or beyond the usual limits of such assays
Settings: source organism: SARS coronavirus Tor2
For each of the sequences below, state its Kd.
Could you give me the number in µM? Just the number is fine.

Incoming: For the sequence `FPREGVFVF` , what Kd is on record?
Outgoing: 0.00536

Incoming: For the sequence `MPNMLRIMA` , what Kd is on record?
Outgoing: 0.027
